Please go through the items and note down their polymerase ribozyme fitness (log ratio).
B1: TPR t1 (parent)
chain: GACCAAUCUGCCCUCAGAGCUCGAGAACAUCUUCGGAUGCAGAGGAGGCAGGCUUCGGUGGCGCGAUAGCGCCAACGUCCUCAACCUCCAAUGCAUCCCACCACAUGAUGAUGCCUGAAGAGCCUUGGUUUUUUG

Variants of: B1
Assay: polymerase ribozyme fitness, log enrichment relative to wild type (log ratio); higher = more active; in vitro selection for triplet polymerase activity
One number for each entry.

Consider the worked cases shown below.
1. U9A G63C A84U G120A
0.752
2. A27G G71A C72U A95G
-4

Hello, I would appreciate it if you could give polymerase ribozyme fitness (log ratio) for each entry below.
1. U7C U106C
2. C40A G47A
3. C49U C72A C79G C104A
4. A5G A26U
5. C53G U125A

A.
1: -0.478; 2: -3.03; 3: -4.65; 4: -2.44; 5: -2.2

Hello, I would appreciate it if you could give polymerase ribozyme fitness (log ratio) for each entry below.
1. G36U G48U
2. A37G G60U U112C C123G
3. G52U G60U C73U U96G A121G
4. U9A C53U

A.
1. -2.23
2. -0.195
3. -0.386
4. 0.789
